The molecules listed here are annotated with their inhibition at 50 µM.
targetEntity: recombinant E. coli DXR enzyme (EcDXR) (Escherichia coli, UniProt P45568)
Sequence (P45568 whole entry): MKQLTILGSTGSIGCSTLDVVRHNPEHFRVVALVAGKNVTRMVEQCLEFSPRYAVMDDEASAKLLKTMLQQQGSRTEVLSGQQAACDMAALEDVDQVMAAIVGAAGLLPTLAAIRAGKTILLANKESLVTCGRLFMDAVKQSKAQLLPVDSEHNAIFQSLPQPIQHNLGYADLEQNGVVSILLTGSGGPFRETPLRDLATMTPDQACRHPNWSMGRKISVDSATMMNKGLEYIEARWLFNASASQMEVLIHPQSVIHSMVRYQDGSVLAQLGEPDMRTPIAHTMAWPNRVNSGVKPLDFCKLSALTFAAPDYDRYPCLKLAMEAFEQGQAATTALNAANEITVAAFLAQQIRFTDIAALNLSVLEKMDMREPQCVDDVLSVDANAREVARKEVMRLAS
assaySummary: DXR enzyme inhibition assay
Assay type: biochemical
conditionContext: read-out: % Inhibition at 50 μM, EcDXR, 50 μM
Write the number in % without appending the unit.

[Q] Look up and report measured inhibition at 50 µM (recombinant E. coli DXR enzyme (EcDXR) (Escherichia coli, UniProt P45568)) for the following molecule: O=C(NCCCc1ccccc1)c1ccc2ccccc2c1O [Compound 25c]
[A] 31.3

[Q] Report measured inhibition at 50 µM on recombinant E. coli DXR enzyme (EcDXR) (Escherichia coli, UniProt P45568); entry: O=C(NC(c1cccc2ccccc12)P(=O)(O)O)c1ccc2ccccc2c1O (stereo not drawn) [Compound 22d]
[A] 73.7

[Q] GET inhibition at 50 µM where system = recombinant E. coli DXR enzyme (EcDXR) (Escherichia coli, UniProt P45568) and item = O=C(NC(c1ccccc1)P(=O)(O)O)c1coc2ccccc2c1=O (stereo not drawn) [Compound 23a]
[A] 79.8

[Q] Identify measured inhibition at 50 µM obtained with recombinant E. coli DXR enzyme (EcDXR) (Escherichia coli, UniProt P45568) for CC(NC(=O)c1cccc(O)c1O)P(=O)(O)O (stereo not drawn) [Compound 21c] .
[A] 60.1

[Q] Given CC(NC(=O)c1ccc2ccccc2c1O)P(=O)(O)O (stereo not drawn) [Compound 22c] , report its inhibition at 50 µM on recombinant E. coli DXR enzyme (EcDXR) (Escherichia coli, UniProt P45568).
[A] 84.2

[Q] Consider the molecule O=C(NCP(=O)(O)O)c1ccc2ccccc2c1O [Compound 22b] tested on recombinant E. coli DXR enzyme (EcDXR) (Escherichia coli, UniProt P45568); state its inhibition at 50 µM.
[A] 76.3

[Q] Specify inhibition at 50 µM for O=C(NCCc1ccccc1)c1ccc2ccccc2c1O [Compound 25b, 1-Hydroxy-N-phenethyl-2-naphthamide] , system recombinant E. coli DXR enzyme (EcDXR) (Escherichia coli, UniProt P45568).
[A] 4.69

[Q] Specify inhibition at 50 µM for O=C(NC(c1ccccc1)P(=O)(O)O)c1ccc2ccccc2c1O (stereo not drawn) [Compound 22a] , system recombinant E. coli DXR enzyme (EcDXR) (Escherichia coli, UniProt P45568).
[A] 70.9

[Q] For recombinant E. coli DXR enzyme (EcDXR) (Escherichia coli, UniProt P45568), give the measured inhibition at 50 µM of the entry O=C(NC(c1cccc2ccccc12)P(=O)(O)O)c1ccccc1O (stereo not drawn) [Compound 20d]
[A] 81.3

All figures here come from paper PMC11362829.
